- testedSystem: UniProt:P25090
- protocolText: FPR2 cyclic adenosine monophosphate (cAMP) assay
- assaySetup: CHO cells overexpressing human FPR2; forskolin 5 µM; inhibition of cAMP production; read-out: hFPR2 cAMP2 EC50
measurementType: EC50 (nM)

Below, 5 molecules whose answers are already recorded.
COc1cc(N2C[C@@H](C)N(C)[C@@H](C)C2)nc(N2C[C@@H](c3c(F)cc(OC)cc3F)[C@H](NC(=O)c3ccc(OC(F)F)cc3)C2=O)c1 :: 5.6
COc1cc(F)c([C@@H]2CN(c3nc(N4CC(F)(F)C4)ccc3F)C(=O)[C@H]2NC(=O)c2ccc(OC(F)F)cc2)c(F)c1 :: 3.1
COc1cc(F)c([C@@H]2CN(c3c(C)c4c(n(CCO)c3=O)CCCC4)C(=O)[C@H]2NC(=O)c2ccc(OC(F)(F)F)cc2)c(F)c1 :: 20
CCn1cc2c(c(N3C[C@@H](c4c(F)cc(OC)cc4F)[C@H](NC(=O)c4ccc(OC(F)F)cc4)C3=O)c1=O)CCCC2 :: 1.1
COc1cc(F)c([C@@H]2CN(c3cccn(CCN4CC5(COC5)C4)c3=O)C(=O)[C@H]2NC(=O)c2ccc(OC(F)F)cc2)c(F)c1 :: 4.2

(I) COc1cc(F)c([C@@H]2CN(c3c(C)ccn(CC4CCOC4)c3=O)C(=O)[C@H]2NC(=O)c2ccc(OC(F)F)cc2)c(F)c1 (stereo partly shown) [Example 695]
(II) COc1cc(F)c([C@@H]2CN(c3ncccc3P(C)(C)=O)C(=O)[C@H]2NC(=O)c2ccc(OC(F)F)cc2)c(F)c1
(III) COc1cc(F)c([C@@H]2CN(c3cccnc3OCCN3CC4(COC4)C3)C(=O)[C@H]2NC(=O)c2ccc(OC(F)F)cc2)c(F)c1
Task item: Parameters: sort_field (EC50), sort_dir (desc). Could you list the labels in the order requested?
Reply: II, III, I

(1) COc1cc(F)c([C@@H]2CN(c3c(C)ccn(CC4CCOCC4)c3=O)C(=O)[C@H]2NC(=O)c2ccc(OC(F)(F)F)cc2)c(F)c1
(2) COc1cc(F)c([C@@H]2CN(c3cccn(CC(C)(CO)CO)c3=O)C(=O)[C@H]2NC(=O)c2ccc(OC(F)F)cc2)c(F)c1 [Example 179]
Task item: Please indicate which entry, 1 or 2 , has the lower recorded EC50 value. Respond using the label that marks the chosen record.
Reply: 1

###

- testedSystem: human FPR2 (Homo sapiens (Human), UniProt P25090)
- Sequence (P25090 whole entry): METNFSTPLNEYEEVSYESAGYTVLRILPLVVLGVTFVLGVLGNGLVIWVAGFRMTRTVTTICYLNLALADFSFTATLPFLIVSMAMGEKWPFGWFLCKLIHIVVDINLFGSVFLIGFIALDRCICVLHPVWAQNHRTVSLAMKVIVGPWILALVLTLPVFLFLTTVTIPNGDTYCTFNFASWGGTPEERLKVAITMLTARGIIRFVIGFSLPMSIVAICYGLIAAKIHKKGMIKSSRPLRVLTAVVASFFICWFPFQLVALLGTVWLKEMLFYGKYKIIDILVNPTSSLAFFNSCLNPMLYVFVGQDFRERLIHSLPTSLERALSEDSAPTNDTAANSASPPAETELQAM
- protocolText: FPR2 cyclic adenosine monophosphate (cAMP) assay
- assaySetup: CHO cells overexpressing human FPR2; forskolin 5 µM; inhibition of cAMP production; read-out: hFPR2 cAMP2 EC50
measurementType: EC50 (nM)

Below, 2 compounds whose answers are already recorded.
COc1cc(F)c([C@@H]2CN(c3nccc(OCC(C)(C)O)c3C(F)(F)F)C(=O)[C@H]2NC(=O)c2ccc(Cl)cc2)c(F)c1 :: 13
COc1cc(F)c([C@@H]2CN(c3cccc(OC(F)F)c3)C(=O)[C@H]2NC(=O)c2ccc(OC(F)(F)F)cc2)c(F)c1 :: 4.8

(a) COc1cc(F)c([C@@H]2CN(c3cccn(CC(OC)C(F)(F)F)c3=O)C(=O)[C@H]2NC(=O)c2ccc(OC(F)F)cc2)c(F)c1 (stereo partly shown) [Example 186]
(b) COc1cc(F)c([C@@H]2CN(c3c(C)ccn(CC(C)O)c3=O)C(=O)[C@H]2NC(=O)c2ccc(OC(F)(F)F)cc2)c(F)c1 (stereo partly shown) [Example 400]
(c) COc1cc(F)c([C@@H]2CN(c3cccn(CC(O)C(F)(F)F)c3=O)C(=O)[C@H]2NC(=O)c2ccc(OC(F)(F)F)cc2)c(F)c1 (stereo partly shown) [Example 47]
(d) COc1cc(F)c([C@@H]2CN(c3c(C)ccn(C4CCOC4)c3=O)C(=O)[C@H]2NC(=O)c2ccc(OC(F)F)cc2)c(F)c1 (stereo partly shown)
Task item: Ascending sort, EC50. Could you list the labels in the order requested?
Reply: c, b, a, d
(c: 1.1 nM, b: 2.9 nM, a: 4.9 nM, d: 9.4 nM)

(P) COc1cc(F)c([C@@H]2CN(c3c(C)ccn(CC4CCO4)c3=O)C(=O)[C@H]2NC(=O)c2ccc(Cl)cc2)c(F)c1 (stereo partly shown) [Example 618]
(Q) COc1cc(F)c([C@@H]2CN(c3c(C)ccn(C4CC4)c3=O)C(=O)[C@H]2NC(=O)c2ccc(OC(F)(F)F)cc2)c(F)c1
(R) COc1cc(F)c([C@H]2[C@H](NC(=O)c3ccc(OC(F)F)cc3)C(=O)N(c3ncccc3OC(C)C)[C@H]2C)c(F)c1
Task item: Parameters: sort_field (EC50), sort_dir (desc). Could you list the labels in the order requested?
Reply: Q, R, P
(Q: 4.8 nM, R: 3.3 nM, P: 1 nM)

Every entry's value here was drawn from patent US20230348426A1.
